Tested on: MS2 coat protein
Test: apparent KD of MS2 coat protein; designed switch direction (-1 OFF switch, 1 ON switch): -1; higher = weaker reporter binding
Conditions: input ligand: none
parameterMeasured: apparent KD of MS2 coat protein (nM)
Answers are plain numbers, in nM.

sequenceRecord	target	experimentalValue
UCUGUUAUGCGAGGAUAUCGACCAUUCCUCUUAACAUGAGGAUCACCCAUGUGCUAAACCUACAACGAGAAGGCGCUCAUACUC [JR_ExcNG2_Sub068] (Eterna round: R96, puzzle: Exclusion NG 2)	MS2 coat protein	143
AGGAGACAUGAGGAUCACCCAUGUAAGGAUAUGUAGGAGCAGCCGGCUGGUUCGCUCCGCAGAAGGUGCGCGGU [Eternabot (L2) Solution 11] (Eterna round: R97, puzzle: Exclusion 1)	MS2 coat protein	41.3
GCUAGGCAUGUCAGGAUAUGCUGUACCUUGGUACAGCAGAAGGGACAUGAGGAUCACCCAUGUGCCUACCUAGC [JL-BMX4-4.04] (Eterna round: R97, puzzle: Brourd's mod of Exclusion 4)	MS2 coat protein	28.3
GCGCACCUACCAAAAGGUAGGCCGACAUGAGGAUCACCCAUGUAGGAUAUCGAUUGCUUUGCAGUCGAGAAGGACAUGAUGCGC [JL ENG3 3.80 Mod 9] (Eterna round: R96, puzzle: Exclusion NG 3)	MS2 coat protein	19

I'm hoping you can list apparent KD of MS2 coat protein for every sequence here, please.
1. AAGUCGACGGUGAGGAUAUUGGUUGAACGACAGAUCAAGAAGGCACAUGAGGAUCACCCAUGUGGGUAACGUCG [Brourd's EX4 #38] (Eterna round: R97, puzzle: Brourd's mod of Exclusion 4)
2. GAGUUAGCGUGAGGAAUAUACAUGAGGAUCACCCAUGUUAGCAAAUAUAUUGCUCGUCUUAUAACAACAAUUAACUC [Alarm 9 - Jieux - Sensor, turn-off variant 1] (Eterna round: R97, puzzle: Sensor, turn-off variant 1)
3. AGGCCACAUGAGGAUCACCCAUGUUAGGAUAUCGAGAGUACAACGAGCCGUCACUUCCCGAGAAGGGACAAGGG [Eternabot (Original) Solution 22] (Eterna round: R97, puzzle: Exclusion 1)
4. UAUAUUGGAGGAUAUCUCUCAGUGAACAUGAGGAUCACCCAUGUUGGUGAACGACGGCACAGAGAAGGUCAACGCA [Eternabot (L2) Solution 61] (Eterna round: R97, puzzle: Exclusion 5)
5. AGCUAGUCAGGAUAUUCUAAUGAUUACAUGAGGAUCACCCAUGUGAAUGGACAAGGGUGUGAAGAAGGGACUAGCG [Omei Ex5 A10] (Eterna round: R97, puzzle: Exclusion 5)

A:
1: 19.1; 2: 14.3; 3: 54.5; 4: 499; 5: 4030
